Values were extracted from patent US20240415819A1.

- System: B-cells isolated from PBMC's
- assay.overview: Chymotrypsin-like ProteasomeGlo assay in B-cells isolated from PBMCs
- Format: cell-based, human
- measurement.setup: Homo sapiens; B-cells isolated from PBMC's; read-out: Pglo B-Cell
measurement.type: IC50

{"molecule": "Cc1ccc2cc1CNC(=O)[C@H](CCc1ccccc1)NC(=O)[C@@H](NC(=O)c1nc3ccccc3[nH]1)CC(=O)N1CCCC(CCO2)C1 (some centres unmarked)", "IC50": "< 0.1 µM"}

Task item: Please report IC50 for the following molecule: Cc1ccc2cc1CNC(=O)[C@H](C)NC(=O)CCC(=O)N1CCCC(CCO2)C1 (some centres unmarked)
Reply: 0.1 to 0.5 µM

Task item: Annotate the molecule CCC(C(=O)N[C@H]1CC(=O)N2CCCC(CCOc3ccc(C)c(c3)CNC(=O)[C@H](CCc3ccccc3)NC1=O)C2)c1ccc(OC)c(OC)c1 (some centres unmarked) with its measured IC50.
Reply: < 0.1 µM

Task item: Return the recorded IC50 value; entry: CC(=O)N[C@H]1CC(=O)N2CCCC(CCOc3ccc(C)c(c3)CNC(=O)[C@H](CCc3ccccc3)NC1=O)C2 (some centres unmarked)
Reply: < 0.1 µM

Task item: Answer with reported IC50 of Cc1ccc2cc1CNC(=O)[C@H](CCc1ccccc1)NC(=O)[C@@H](NC(=O)Cc1ccccc1)CC(=O)N1CCCC(CCO2)C1 (some centres unmarked)
Reply: < 0.1 µM

Task item: Report IC50, nothing else, for this molecule: Cc1cc(C)c2cc1CNC(=O)[C@H](CCc1ccccc1)NC(=O)CCC(=O)N1CCCC(CCO2)C1 (some centres unmarked)
Reply: 0.1 to 0.5 µM

Task item: Note down IC50 recorded for Cc1ccc2cc1CNC(=O)[C@H](CCc1ccccc1)NC(=O)[C@@H](N)CC(=O)N1CCCC(CCO2)C1 (some centres unmarked)
Reply: < 0.1 µM

Task item: Report measured IC50; entry is Cc1ccc2cc1CNC(=O)[C@H](CCc1ccccc1)NC(=O)[C@@H](NC(=O)CN1CCOCC1)CC(=O)N1CCCC(CCO2)C1 (some centres unmarked)
Reply: < 0.1 µM

Task item: Consider the molecule Cc1ccc2cc1CNC(=O)[C@H](CCc1ccccc1)NC(=O)[C@@H](NC(=O)c1ccccc1)CC(=O)N1CCCC(CCO2)C1 (some centres unmarked) . State its measured IC50.
Reply: < 0.1 µM

----------
- Tested on: HT-29 cells
- assay.overview: CellTiter-Glo luminescent cell viability assay with HT-29 cells (72h incubation)
- Type: cell-based, human
- measurement.setup: Homo sapiens, HT-29, HT29 cells, read-out: CTG HT29
measurement.type: IC50

{"compound": "CO[C@@H](C(=O)N[C@H]1CC(=O)N2CCCC(CCOc3ccc(C)c(c3)CNC(=O)[C@H](CCc3ccccc3)NC1=O)C2)c1ccccc1 (stereo partly shown) [Compound 86]", "IC50": "< 100 nM"}

Task item: Fill in reported IC50 for this entry: CC(=O)N[C@H]1CC(=O)N(C)CCCOc2ccc(C)c(c2)CNC(=O)[C@H](CCc2ccccc2)NC1=O [Compound 256]
Reply: 100 to 500 nM

Task item: Give IC50 for the following compound: Cc1ccc2cc1CNC(=O)C(c1cnn(C)c1)NC(=O)CCCCC(=O)N1CCCC(CCO2)C1 (stereo not shown) [Compound 356]
Reply: 500 to 1000 nM
